Data credit: patent US10766869B2

Test system: primary rat mixed cortical cells
Experiment: In vitro myelination assay (MBP positive myelin strands, fold myelin pixels above background)
Assay type: cell-based
Conditions: Rattus norvegicus, 10.0 μM compound, relative to baseline of no added compound; read-out: Fold myelin pixels above background, 10.0 μM
Reported fold induction at 10 µM values for the following compounds.

Cc1cc(Nc2ncn(-c3cccc(F)c3)n2)cc(C2COC2)c1 ... 10 to 100

Please indicate fold induction at 10 µM recorded for Fc1cc(Nc2ncn(-c3ccccc3F)n2)cc(N2CCCC2)c1
10 to 100

Please indicate fold induction at 10 µM recorded for Cc1cc(Nc2ncn(-c3cc(F)c(C#N)cc3F)n2)cc(N2CCN(C3COC3)CC2)c1
10 to 100

Please indicate fold induction at 10 µM recorded for Cc1cc(Nc2ncn(-c3ccccc3)n2)cc(NC2CCN(C3COC3)CC2)c1
1000 to 10000

---

Test system: primary rat mixed cortical cells
Assay: In vitro myelination assay (MBP positive myelin strands, fold myelin pixels above background)
Assay type: cell-based
Details: Rattus norvegicus, 10.0 μM compound, relative to baseline of no added compound; read-out: Fold myelin pixels above background, 10.0 μM
endpoint-label: fold induction at 10 µM

These recorded examples may help you get a feel for the data.
Cc1cc(Nc2ncn(-c3ccccn3)n2)cc(C2CCCN(C3COC3)C2)c1 (stereo not shown) [Compound 207] ... ≤ 1
CCc1cc(Nc2ncn(-c3ccc(F)c(F)c3)n2)cc(N2CC(N3CCOCC3)C2)c1 [Compound 198] ... 10 to 100
Cc1cc(Nc2ncn(-c3cncc(F)c3)n2)cc(N2CCCC2)c1 [Compound 320] ... 100 to 1000

Continue with the next compound.
Please indicate fold induction at 10 µM recorded for Cc1cc(Nc2ncn(-c3cnccn3)n2)cc(N2CCN(C3(C)COC3)CC2)c1 [Compound 136]
10 to 100

---

System: primary rat mixed cortical cells
Experiment: In vitro myelination assay (MBP positive myelin strands, fold myelin pixels above background)
Format: cell-based
Settings: Rattus norvegicus, 1.0 μM compound, relative to baseline of no added compound; read-out: Fold myelin pixels above background
endpoint-label: fold induction at 1 µM

These recorded examples may help you get a feel for the data.
CCN1CCN(c2cc(C(F)(F)F)cc(Nc3ncn(-c4cc(F)cc(F)c4)n3)n2)CC1 ... 1 to 10
Cc1cc(Nc2ncn(-c3cc(F)cc(F)c3)n2)cc(N2CC3CCC(C2)O3)c1 ... 10 to 100

Please indicate fold induction at 1 µM recorded for Cc1cc(Nc2ncn(-c3cc(F)cc(F)c3)n2)cc(C2CN(C3COC3)C(C)CO2)c1 (stereo not shown)
10 to 100

Please indicate fold induction at 1 µM recorded for CCCc1cc(Nc2ncn(-c3cc(F)cc(F)c3)n2)cc(N2CCN(C3COC3)CC2)c1
10 to 100

Please indicate fold induction at 1 µM recorded for Cc1cc(Nc2ncn(-c3cc(F)cc(F)c3)n2)nc(N2CCN(C(C)(C)C)CC2)c1
10 to 100

Please indicate fold induction at 1 µM recorded for Cc1cc(Nc2ncn(-c3ccccc3C)n2)cc(N2CCN(C3COC3)CC2)c1
1 to 10

Please indicate fold induction at 1 µM recorded for Cc1cc(Nc2ncn(-c3ccc(F)cc3)n2)cc(N2CC(N3CCOCC3)C2)c1
1 to 10

Please indicate fold induction at 1 µM recorded for Cc1cc(N2CCN(C3COC3)CC2)cc(Nc2ncn(-c3cnccn3)n2)c1C
10 to 100

---

Reported fold induction at 10 µM values for the following molecules.
Tested on: primary rat mixed cortical cells
Test: In vitro myelination assay (MBP positive myelin strands, fold myelin pixels above background)
Type: cell-based
Conditions: Rattus norvegicus, 10.0 μM compound, relative to baseline of no added compound; read-out: Fold myelin pixels above background, 10.0 μM

COCCCN1CCC(Nc2cc(C)cc(Nc3ncn(-c4ccccc4)n3)c2)CC1 [Compound 182] ... 1 to 10
CC(=O)N1CCCC(c2cc(C)cc(Nc3ncn(-c4cnccn4)n3)c2)C1 (stereo not shown) [Compound 300] ... ≤ 1

Please indicate fold induction at 10 µM recorded for Cc1cc(Nc2ncn(-c3cc(F)cc(F)c3)n2)cc(N2CC(CC(C)C)N3CCC[C@@H]3C2)c1 (stereo partly shown) [Compound 29]
≤ 1

Please indicate fold induction at 10 µM recorded for COCC1CN(c2cc(C)cc(Nc3ncn(-c4cc(F)cc(F)c4)n3)c2)C1 [Compound 116]
≤ 1

Please indicate fold induction at 10 µM recorded for COc1cccc(-n2cnc(Nc3cc(C)cc(N4CCN(C5COC5)CC4)c3)n2)c1 [Compound 86]
100 to 1000

Please indicate fold induction at 10 µM recorded for Cc1cc(Nc2ncn(-c3cc(F)cc(F)c3)n2)cc([C@@]2(O)CCN(C3COC3)C2)c1 (single isomer, unassigned) [Compound 101]
1 to 10

Please indicate fold induction at 10 µM recorded for Cc1cc(Nc2ncn(-c3cccc(F)n3)n2)cc(N2CCN(C3COC3)CC2)c1 [Compound 154]
100 to 1000

Please indicate fold induction at 10 µM recorded for c1ccc(-n2cnc(Nc3cc(C4CC4)cc(N4CCOCC4)c3)n2)cc1 [Compound 305]
≤ 1

Please indicate fold induction at 10 µM recorded for CC(C)c1cc(Nc2ncn(-c3cc(F)cc(F)c3)n2)cc(N2CCN(C3COC3)CC2)c1 [Compound 359]
≤ 1

---

Reported fold induction at 10 µM values for the following molecules.
Test system: primary rat mixed cortical cells
Experiment: In vitro myelination assay (MBP positive myelin strands, fold myelin pixels above background)
Format: cell-based
Conditions: Rattus norvegicus, 10.0 μM compound; read-out: Fold myelin pixels above background relative to baseline of no added compound

Please indicate fold induction at 10 µM recorded for Cc1cc(Nc2ncn(-c3cc(F)cc(F)c3)n2)cc(N2CCOC3(CCOCC3)CC2)c1
1 to 10

Please indicate fold induction at 10 µM recorded for Cc1cc(NCC(=O)N2CCCC2)cc(Nc2ncn(-c3cc(F)cc(F)c3)n2)c1
10 to 100

Please indicate fold induction at 10 µM recorded for Cc1cc(Nc2ncn(-c3cc(F)cc(F)c3)n2)cc(N2CCCC2CS(C)(=O)=O)c1 (stereo not shown)
1 to 10

Please indicate fold induction at 10 µM recorded for Cc1cc(Nc2ncn(-c3cc(F)cc(F)c3)n2)cc(N2CCC(N(C)CCO)CC2)c1
≤ 1

---

Reported fold induction at 10 µM values for the following compounds.
Test system: primary rat mixed cortical cells
Experiment: In vitro myelination assay (MBP positive myelin strands, fold myelin pixels above background)
Format: cell-based
Settings: Rattus norvegicus, 10.0 μM compound; read-out: Fold myelin pixels above background relative to baseline of no added compound

Cc1cc(Nc2ncn(-c3cc(F)cc(F)c3)n2)nc(C2CCN(C3COC3)CC2)c1 [Compound 801] ... 1 to 10
CC(F)(F)c1cc(Nc2ncn(-c3cccc(F)c3)n2)nc(N2CCN(C3COC3)CC2)c1 [Compound 860] ... 1 to 10
Cc1cc(Nc2ncn(-c3cc(F)cc(F)c3)n2)c(F)c(OC2CCOC2)c1 (stereo not shown) [Compound 856] ... ≤ 1
Cc1cc(Nc2ncn(-c3ccc(C)c(F)c3)n2)cc(N2CCN(C3COC3)CC2)c1 [Compound 836] ... 1 to 10

Please tell me the measured fold induction at 10 µM for Cc1cc(Nc2ncn(-c3cc(F)cc(F)c3)n2)cc(N2CC(N3CCOC[C@@H]3C)C2)c1 (single isomer, unassigned) [Compound 800] ; system: primary rat mixed cortical cells.
10 to 100

Please tell me the measured fold induction at 10 µM for Fc1cc(F)cc(-n2cnc(Nc3cc(C(F)F)cc(N4CC(N5CCOCC5)C4)c3)n2)c1 [Compound 804] ; system: primary rat mixed cortical cells.
≤ 1

Please tell me the measured fold induction at 10 µM for Cc1cc(Nc2ncn(-c3cc(F)cc(F)c3)n2)cc(NC2CCCC2N2CCOCC2)c1 (stereo not shown) [Compound 912] ; system: primary rat mixed cortical cells.
1 to 10

Please tell me the measured fold induction at 10 µM for COCCNC1CN(c2cc(C)cc(Nc3ncn(-c4cc(F)cc(F)c4)n3)c2)C1 [Compound 816] ; system: primary rat mixed cortical cells.
1 to 10

---

Tested on: primary rat mixed cortical cells
Assay: In vitro myelination assay (MBP positive myelin strands, fold myelin pixels above background)
Assay type: cell-based
Conditions: Rattus norvegicus, 10.0 μM compound; read-out: Fold myelin pixels above background relative to baseline of no added compound
endpoint-label: fold induction at 10 µM

These recorded examples may help you get a feel for the data.
Cc1cc(Nc2ncn(-c3cc(F)cc(F)c3)n2)cc(N2CCOC(C3CCCO3)C2)c1 (stereo not shown) [Compound 888] ... 1 to 10
CCC(O)CN1CCN(c2cc(C)cc(Nc3ncn(-c4cc(F)cc(F)c4)n3)c2)CC1 (stereo not shown) [Compound 957] ... ≤ 1
Cc1cc(Nc2ncn(-c3cc(F)cc(F)c3)n2)cc(N2CCC(OCCN3CCCC3)CC2)c1 [Compound 1074] ... ≤ 1

Continue with the next compound.
Please indicate fold induction at 10 µM recorded for Fc1cc(F)cc(-n2cnc(Nc3cc(N4CCN(C5COC5)CC4)cc(F)n3)n2)c1 [Compound 847]
1 to 10
